Tested on: Plasmodium falciparum Sir2 (PF13_0152, Sir2A)
Assay: pfSir2 binders on small-molecule microarrays, primary screen, biochemical, small-molecule microarray, 635 nm fluorescence (AID 1098);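 also: score merges spot fluorescence intensity with its signal-to-noise ratio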
Details: small-molecule microarray binding, fluorescence 635 nm; higher = more signal
measurement-kind: composite z-score

The reported value for CC(CCN1CCCc2nc(C)c(C)cc21)=NO[C@@H](C)c1cc(-c2c(C)cc(C)cc2C)no1 in terms of composite z-score is 0.739

The reported value for COC(=O)CC=C[C@@H](C)[C@@H](C=NOC[C@H]1O[C@H](c2ccccc2)C=C[C@@H]1Oc1ccc(OC)cc1)OC in terms of composite z-score is -0.67

The reported value for CO[C@H]1COC(=O)CCC[C@@H](C)[C@H](OC)COC(=O)[C@@H]2CCCN2C(=O)CC=C[C@@H]1C in terms of composite z-score is 1.78

The reported value for CCOC(=O)[C@H](CC(C)C)NC(=O)CCC1CC(OC(=O)NCCc2ccc(F)cc2)CC2(CCCC(COC(=O)NCCc3ccccc3OC)O2)O1 (stereo not given in full) in terms of composite z-score is 0.82

The reported value for O=C1[C@H]2[C@H]3[C@H](O)[C@H](O)CC(=NOCc4ccccc4)[C@H]3CC[C@H]2C(=O)N1Cc1ccc2c(c1)OCO2 in terms of composite z-score is 0.297

The reported value for COc1ccc(COC(=O)NN=C2C[C@@H](O)[C@@H](O)[C@@H]3[C@@H]4C(=O)N(Cc5ccccc5)C(=O)[C@@H]4CC[C@H]23)cc1 in terms of composite z-score is -0.515

The reported value for CO[C@H]1COC(=O)CCC[C@@H](C)[C@H](OC)COC(=O)[C@@H](C)NC(=O)CC=C[C@@H]1C in terms of composite z-score is 1.69

The reported value for CCOC(=O)NN=C1C[C@@H](O)[C@@H](O)[C@@H]2[C@@H]3C(=O)N([C@@H](C)c4ccccc4)C(=O)[C@@H]3CC[C@H]12 in terms of composite z-score is 0.209

The reported value for COC(=O)CC=C[C@@H](C)[C@@H](C=NO[C@H](C)c1cn([C@@H]2COC[C@H]2O)nn1)NS(=O)(=O)c1ccc(C)cc1 in terms of composite z-score is 0.163

The reported value for CCOC(=O)[C@H](Cc1ccccc1)NC(=O)CCC1CC(OC(=O)NCc2ccc3c(c2)OCO3)CC2(CCCC(COC(=O)NCCc3ccccc3OC)O2)O1 (stereo not given in full) in terms of composite z-score is 0.604

The reported value for CO[C@@H]1C=CCC(=O)N2CCC[C@H]2C(=O)OC[C@@H](C)C(=O)OC[C@H]1C in terms of composite z-score is 1.1

The reported value for COc1cccc([C@H]2Oc3ccc(OC)cc3C(=NOC[C@@H](O)COCc3ccco3)[C@@H]2O)c1 in terms of composite z-score is -0.12

The reported value for CO[C@H]1COC(=O)CC=C[C@H](C)[C@@H](OC)COC(=O)[C@@H](C)NC(=O)CC=C[C@@H]1C in terms of composite z-score is 1.23

The reported value for CO[C@H]1COC(=O)[C@@H](Cc2ccccc2)NC(=O)[C@@H](C)COC(=O)CCC[C@@H]1C in terms of composite z-score is -0.0517

The reported value for CC(=O)OC[C@H]1O[C@H](CCON=C2[C@H]3CCn4c(=O)n(-c5ccccc5)c(=O)n4[C@H]3[C@H](O)[C@@H]3O[C@H]23)C=C[C@@H]1OC(C)=O in terms of composite z-score is 0.0057

* * *

Molecular target: Streptavidin (Streptomyces avidinii)
Experiment: streptavidin binders on small-molecule microarray, primary screen, artefact control for SMM compound annotation, biophysical, 635/667 nm fluorescence (AID 1147);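 also: signal reflects streptavidin binding to arrayed compounds as a control protein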
Settings: streptavidin binding, higher = more signal
Label Fulfilled when composite z-score >= 0.2; otherwise Not fulfilled.

Please indicate if the recorded composite z-score for C[C@@H](c1ccccc1)N1C(=O)[C@H]2[C@H]3[C@H](O)[C@H](O)CC(=O)[C@H]3CC[C@H]2C1=O meets or exceeds 0.2.
Not fulfilled

Please indicate if the recorded composite z-score for CON=C1[C@H]2CCn3c(=O)n(-c4ccccc4)c(=O)n3[C@H]2[C@H](O)[C@@H]2O[C@H]12 meets or exceeds 0.2.
Not fulfilled

Please indicate if the recorded composite z-score for CC(CCN1CCc2nc(-c3ccccc3)c(-c3ccccc3)cc2C1)=NOC[C@@H](O)[C@H]1O[C@@H]2OC(C)(C)O[C@@H]2[C@H]1O meets or exceeds 0.2.
Fulfilled

Please indicate if the recorded composite z-score for C=CC[C@@H]1C=C[C@H](ON=C[C@@H](C)[C@H](OCc2ccccc2)C(C)C)[C@@H](CO)O1 meets or exceeds 0.2.
Not fulfilled

Please indicate if the recorded composite z-score for COC(=O)CC=C[C@@H](C)[C@@H](C=NO[C@H](C)c1cn([C@H](CO)Cc2ccccc2)nn1)NS(=O)(=O)c1ccc(C)cc1 meets or exceeds 0.2.
Fulfilled

Please indicate if the recorded composite z-score for COCOc1ccc(Br)cc1C(=O)[C@@H]1O[C@H]1c1cccc(OC)c1 meets or exceeds 0.2.
Not fulfilled

* * *

Tested on: glycogen synthase kinase-3 (GSK3A per assay name; protocol says GSK3B)
Assay: GSK3 binders on small-molecule microarrays, primary screen, biochemical, small-molecule microarray, 635 nm fluorescence, GSK3A (AID 1103); also: the record names both GSK3A and GSK3B
Details: small-molecule microarray binding, fluorescence 635 nm; higher = more signal
measurement-kind: composite z-score
// response body must contain only the number

Short answer on glycogen synthase kinase-3 (GSK3A per assay name; protocol says GSK3B) for CC(=O)O[C@H]1C2=CO[C@H](C)[C@H]3[C@H]4C5=C([C@H](O)[C@H]6O[C@H]6C5=O)[C@H](OC4C)[C@@]23C(=O)[C@@H]2O[C@@H]21 (stereo not given in full) , composite z-score: -0.0987

Short answer on glycogen synthase kinase-3 (GSK3A per assay name; protocol says GSK3B) for CC(C)=CCCC(C)=CCON=C1C[C@@H](O)[C@@H](O)[C@@H]2[C@@H]3C(=O)N(C[C@@H]4CCCO4)C(=O)[C@@H]3CC[C@H]12 , composite z-score: 1.25

Short answer on glycogen synthase kinase-3 (GSK3A per assay name; protocol says GSK3B) for CO[C@H]1COC(=O)[C@@H](C)COC(=O)[C@@H](OCc2ccccc2)C=C[C@@H]1C , composite z-score: -0.227

Short answer on glycogen synthase kinase-3 (GSK3A per assay name; protocol says GSK3B) for CCOC(=O)[C@H](CC(C)C)NC(=O)CCC1CC(OC(=O)NCc2ccc3c(c2)OCO3)CC2(CCCC(COC(=O)NCCCN3CCCC3=O)O2)O1 (stereo not given in full) , composite z-score: 0.805

Short answer on glycogen synthase kinase-3 (GSK3A per assay name; protocol says GSK3B) for O=C1C=C[C@@H](O)[C@@H]2[C@@H]3C(=O)N(c4ccc(F)cc4F)C(=O)[C@@H]3CC[C@@H]12 , composite z-score: 0.39

* * *

Experiment: S. cerevisiae growth modulation with rapamycin, primary screen, strain BY4716, OD600, 96 h (AID 1091); also: test concentration not given here
Conditions: higher = more signal, called active from +8 up or from −8 down
The following ranges of z-score define the classes used here: lower range: < -0.7; middle range: ≥ -0.7 and < 0.1; upper range: ≥ 0.1

Just checking, what class would you give CCOC(=O)[C@H](Cc1ccccc1)NC(=O)CCC1CC(OC(=O)NCCc2ccc(F)cc2)CC2(CCCC(COC(=O)NCCOC)O2)O1 (stereo not given in full) here?
middle range

Just checking, what class would you give CON=C(C)CCC(=O)OC[C@H]1O[C@H](c2ccccc2)C=C[C@@H]1Oc1ccc(OC)cc1 here?
upper range

Just checking, what class would you give C#CCCCON=C1C[C@@H](O)[C@@H](O)[C@@H]2[C@@H]3C(=O)N(Cc4ccccc4)C(=O)[C@@H]3CC[C@@H]12 here?
lower range

Just checking, what class would you give CCCNC(=O)OC[C@H]1O[C@H](CCON=Cc2ccc(C(=O)N3[C@H](c4ccc(C)cc4)[C@@H](C)CC[C@H]3C(=O)OC)cc2)C=C[C@@H]1Oc1ccc(OC)cc1 here?
upper range

Just checking, what class would you give C[C@@H]1CC[C@H]2C(=O)O[C@@H](COc3ccc(C(C)(C)C)cc3)CN2[C@@H]1c1ccc(Br)cc1 here?
upper range

Just checking, what class would you give CC(C)CON=C1C[C@@H](O)[C@@H](O)[C@@H]2[C@@H]3C(=O)N(Cc4ccc5c(c4)OCO5)C(=O)[C@@H]3CC[C@H]12 here?
upper range

Just checking, what class would you give O=c1n(-c2ccccc2)c(=O)n2n1CC[C@@H]1C(=NOCc3ccccc3)[C@H]3O[C@H]3[C@@H](O)[C@@H]12 here?
lower range

Just checking, what class would you give CO[C@H]1COC(=O)[C@@H](C)COC(=O)[C@H](C)NC(=O)CC=C[C@H]1C here?
middle range

Just checking, what class would you give COC(=O)CC=C[C@H](C)[C@@H](OCc1cccc(Br)c1)[C@@H](C)[C@H](OC)C1CCCCC1 here?
upper range

Just checking, what class would you give O=C1C=C[C@@H](O)[C@@H]2[C@@H]3C(=O)N(c4ccc(F)cc4F)C(=O)[C@@H]3CC[C@@H]12 here?
lower range

Just checking, what class would you give COC(=O)[C@H](C)NC(=O)CCC1CC(OC(=O)NCc2ccc3c(c2)OCO3)CC2(CCCC(COC(=O)NCCc3ccccc3OC)O2)O1 (stereo not given in full) here?
middle range

Just checking, what class would you give CCOC(=O)[C@H](CC(C)C)NC(=O)CCC1CC(OC(=O)NCc2cccc3ccccc23)CC2(CCCC(COC(=O)NCCCN3CCCC3=O)O2)O1 (stereo not given in full) here?
middle range

Just checking, what class would you give C[C@@H]1NC(=O)[C@@H](C)COC(=O)[C@H](C)NC(=O)[C@@H](C)COC1=O here?
lower range

Just checking, what class would you give CO[C@H]1COC(=O)[C@@H](C)COC(=O)[C@H](COCc2ccccc2)NC(=O)CC=C[C@H]1C here?
middle range

Just checking, what class would you give CO[C@@H]1C=CCC(=O)N[C@@H](C)C(=O)OC[C@@H](OC)[C@H](C)CCCC(=O)OC[C@H]1C here?
lower range
